# measured.on: rat brain N-type calcium channel subunits (α1B+α2δ+β1b) (Rattus norvegicus, UniProt Q02294)
# Construct: expressed in transfected cells; host or cells: HEK 293
# Sequence (Q02294 whole entry): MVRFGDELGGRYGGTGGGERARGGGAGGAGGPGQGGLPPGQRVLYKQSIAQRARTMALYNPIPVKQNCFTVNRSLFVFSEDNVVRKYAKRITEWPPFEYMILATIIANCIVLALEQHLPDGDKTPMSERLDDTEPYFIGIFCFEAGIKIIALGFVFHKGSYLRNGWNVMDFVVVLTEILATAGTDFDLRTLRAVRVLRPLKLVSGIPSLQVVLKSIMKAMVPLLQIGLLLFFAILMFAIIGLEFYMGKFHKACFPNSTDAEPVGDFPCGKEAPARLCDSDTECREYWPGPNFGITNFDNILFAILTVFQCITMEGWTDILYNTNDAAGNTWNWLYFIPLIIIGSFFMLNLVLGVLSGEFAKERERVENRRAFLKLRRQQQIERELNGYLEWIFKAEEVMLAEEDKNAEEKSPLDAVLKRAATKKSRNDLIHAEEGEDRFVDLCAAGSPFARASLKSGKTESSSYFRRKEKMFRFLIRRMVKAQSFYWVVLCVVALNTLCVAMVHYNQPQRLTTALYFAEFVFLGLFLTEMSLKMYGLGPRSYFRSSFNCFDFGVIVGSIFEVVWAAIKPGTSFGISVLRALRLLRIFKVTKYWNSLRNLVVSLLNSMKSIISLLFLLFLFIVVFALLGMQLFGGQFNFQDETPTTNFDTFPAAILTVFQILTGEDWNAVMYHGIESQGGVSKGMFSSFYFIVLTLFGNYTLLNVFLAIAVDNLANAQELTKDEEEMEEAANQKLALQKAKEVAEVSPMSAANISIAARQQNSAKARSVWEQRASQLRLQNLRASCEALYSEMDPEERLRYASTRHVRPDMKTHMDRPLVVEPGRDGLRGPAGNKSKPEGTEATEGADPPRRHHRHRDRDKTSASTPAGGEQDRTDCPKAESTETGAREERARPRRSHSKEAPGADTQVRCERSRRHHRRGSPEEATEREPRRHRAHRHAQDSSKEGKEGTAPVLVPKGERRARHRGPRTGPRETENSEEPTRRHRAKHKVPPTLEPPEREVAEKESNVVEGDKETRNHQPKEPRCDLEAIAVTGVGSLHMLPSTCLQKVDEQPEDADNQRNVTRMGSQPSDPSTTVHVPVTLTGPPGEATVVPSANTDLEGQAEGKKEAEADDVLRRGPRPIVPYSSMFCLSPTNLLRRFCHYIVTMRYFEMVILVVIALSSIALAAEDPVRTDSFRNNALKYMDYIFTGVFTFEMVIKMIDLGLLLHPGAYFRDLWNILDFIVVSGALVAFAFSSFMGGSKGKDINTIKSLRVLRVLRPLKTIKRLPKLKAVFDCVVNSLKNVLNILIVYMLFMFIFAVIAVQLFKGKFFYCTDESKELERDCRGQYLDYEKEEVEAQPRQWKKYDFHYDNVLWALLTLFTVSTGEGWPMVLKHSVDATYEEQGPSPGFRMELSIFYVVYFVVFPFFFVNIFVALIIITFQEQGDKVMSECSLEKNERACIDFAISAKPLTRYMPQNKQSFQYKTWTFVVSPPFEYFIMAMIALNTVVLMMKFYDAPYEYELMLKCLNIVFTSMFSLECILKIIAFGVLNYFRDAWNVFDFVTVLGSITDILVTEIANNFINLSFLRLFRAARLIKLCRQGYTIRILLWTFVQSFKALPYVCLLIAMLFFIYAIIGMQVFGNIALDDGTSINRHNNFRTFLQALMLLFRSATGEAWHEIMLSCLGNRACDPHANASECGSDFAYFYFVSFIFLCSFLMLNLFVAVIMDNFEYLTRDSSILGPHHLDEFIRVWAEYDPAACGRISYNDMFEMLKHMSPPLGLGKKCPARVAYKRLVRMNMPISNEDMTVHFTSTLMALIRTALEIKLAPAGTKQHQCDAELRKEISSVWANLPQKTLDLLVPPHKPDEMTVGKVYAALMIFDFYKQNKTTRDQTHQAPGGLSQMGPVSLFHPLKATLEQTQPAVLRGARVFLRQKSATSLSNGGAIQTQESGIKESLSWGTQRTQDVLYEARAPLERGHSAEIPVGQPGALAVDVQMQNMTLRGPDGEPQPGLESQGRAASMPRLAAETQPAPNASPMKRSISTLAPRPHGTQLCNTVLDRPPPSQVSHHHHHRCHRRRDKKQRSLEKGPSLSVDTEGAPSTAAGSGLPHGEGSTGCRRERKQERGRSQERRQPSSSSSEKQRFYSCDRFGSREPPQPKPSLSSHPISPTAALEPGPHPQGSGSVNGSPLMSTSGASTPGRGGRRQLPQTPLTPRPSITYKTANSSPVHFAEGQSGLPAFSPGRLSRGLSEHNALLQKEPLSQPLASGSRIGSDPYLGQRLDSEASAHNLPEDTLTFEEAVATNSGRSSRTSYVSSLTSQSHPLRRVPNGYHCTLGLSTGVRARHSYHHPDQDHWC
# measurement.description: N-type calcium channel block, whole cell patch clamp in HEK 293 cells
# Assay type: cell-based
# applied.conditions: low frequency stimulation 0.067 Hz (tonic block), holding −80 mV to +10 mV, 5 mM Ba; read-out: IC50 at 0.067 Hz
pIC50: −log10 of the molar value.
metric: pIC50

Some solved cases for reference:
>>> df
                                   molecule   val
0  COc1c(C(C)(C)C)cc(CN2CCC(CNCCCCCC(c3ccc(F)cc3)c3ccc(F)cc3)C2)cc1C(C)(C)C (stereo not drawn) [Compound P12]  7.49
1  COc1cc(CNCC2CCN(CCCCCC(c3ccc(F)cc3)c3ccc(F)cc3)C2)cc(OC)c1OC (stereo not drawn) [Compound P4]  6.40
2  CN(Cc1cc(C(F)(F)F)cc(C(F)(F)F)c1)CC1CCN(C(=O)CCCCC(c2ccc(F)cc2)c2ccc(F)cc2)C1 (stereo not drawn) [Compound P57]  6.65
3  CC(C)(C)c1cc(CNCC2CCN(CCCCCC(c3ccc(F)cc3)c3ccc(F)cc3)C2)cc(C(C)(C)C)c1O (stereo not drawn) [Compound P8]  7.46
4  CN(CCN(c1ccccc1)c1ccccc1)CC1CCN(C(c2ccccc2)c2ccccc2)C1 (stereo not drawn) [Compound P55]  6.49

A = O=C(NCC1CCN(C(=O)CCCCC(c2ccc(F)cc2)c2ccc(F)cc2)C1)c1cc(C(F)(F)F)cc(C(F)(F)F)c1 (stereo not drawn) [Compound P24]
B = O=C(COc1ccc(Cl)cc1)NCC1CCN(C(=O)CCCCC(c2ccc(F)cc2)c2ccc(F)cc2)C1 (stereo not drawn) [Compound P36]
Task item: Which record shows the lower pIC50: the first, A , or the second, B ? Respond with the label that goes with your answer.
Reply: A

----------
# measured.on: human α1G T-type channels (Homo sapiens, UniProt O43497)
# Construct: expressed in transfected cells
# Sequence (O43497 whole entry): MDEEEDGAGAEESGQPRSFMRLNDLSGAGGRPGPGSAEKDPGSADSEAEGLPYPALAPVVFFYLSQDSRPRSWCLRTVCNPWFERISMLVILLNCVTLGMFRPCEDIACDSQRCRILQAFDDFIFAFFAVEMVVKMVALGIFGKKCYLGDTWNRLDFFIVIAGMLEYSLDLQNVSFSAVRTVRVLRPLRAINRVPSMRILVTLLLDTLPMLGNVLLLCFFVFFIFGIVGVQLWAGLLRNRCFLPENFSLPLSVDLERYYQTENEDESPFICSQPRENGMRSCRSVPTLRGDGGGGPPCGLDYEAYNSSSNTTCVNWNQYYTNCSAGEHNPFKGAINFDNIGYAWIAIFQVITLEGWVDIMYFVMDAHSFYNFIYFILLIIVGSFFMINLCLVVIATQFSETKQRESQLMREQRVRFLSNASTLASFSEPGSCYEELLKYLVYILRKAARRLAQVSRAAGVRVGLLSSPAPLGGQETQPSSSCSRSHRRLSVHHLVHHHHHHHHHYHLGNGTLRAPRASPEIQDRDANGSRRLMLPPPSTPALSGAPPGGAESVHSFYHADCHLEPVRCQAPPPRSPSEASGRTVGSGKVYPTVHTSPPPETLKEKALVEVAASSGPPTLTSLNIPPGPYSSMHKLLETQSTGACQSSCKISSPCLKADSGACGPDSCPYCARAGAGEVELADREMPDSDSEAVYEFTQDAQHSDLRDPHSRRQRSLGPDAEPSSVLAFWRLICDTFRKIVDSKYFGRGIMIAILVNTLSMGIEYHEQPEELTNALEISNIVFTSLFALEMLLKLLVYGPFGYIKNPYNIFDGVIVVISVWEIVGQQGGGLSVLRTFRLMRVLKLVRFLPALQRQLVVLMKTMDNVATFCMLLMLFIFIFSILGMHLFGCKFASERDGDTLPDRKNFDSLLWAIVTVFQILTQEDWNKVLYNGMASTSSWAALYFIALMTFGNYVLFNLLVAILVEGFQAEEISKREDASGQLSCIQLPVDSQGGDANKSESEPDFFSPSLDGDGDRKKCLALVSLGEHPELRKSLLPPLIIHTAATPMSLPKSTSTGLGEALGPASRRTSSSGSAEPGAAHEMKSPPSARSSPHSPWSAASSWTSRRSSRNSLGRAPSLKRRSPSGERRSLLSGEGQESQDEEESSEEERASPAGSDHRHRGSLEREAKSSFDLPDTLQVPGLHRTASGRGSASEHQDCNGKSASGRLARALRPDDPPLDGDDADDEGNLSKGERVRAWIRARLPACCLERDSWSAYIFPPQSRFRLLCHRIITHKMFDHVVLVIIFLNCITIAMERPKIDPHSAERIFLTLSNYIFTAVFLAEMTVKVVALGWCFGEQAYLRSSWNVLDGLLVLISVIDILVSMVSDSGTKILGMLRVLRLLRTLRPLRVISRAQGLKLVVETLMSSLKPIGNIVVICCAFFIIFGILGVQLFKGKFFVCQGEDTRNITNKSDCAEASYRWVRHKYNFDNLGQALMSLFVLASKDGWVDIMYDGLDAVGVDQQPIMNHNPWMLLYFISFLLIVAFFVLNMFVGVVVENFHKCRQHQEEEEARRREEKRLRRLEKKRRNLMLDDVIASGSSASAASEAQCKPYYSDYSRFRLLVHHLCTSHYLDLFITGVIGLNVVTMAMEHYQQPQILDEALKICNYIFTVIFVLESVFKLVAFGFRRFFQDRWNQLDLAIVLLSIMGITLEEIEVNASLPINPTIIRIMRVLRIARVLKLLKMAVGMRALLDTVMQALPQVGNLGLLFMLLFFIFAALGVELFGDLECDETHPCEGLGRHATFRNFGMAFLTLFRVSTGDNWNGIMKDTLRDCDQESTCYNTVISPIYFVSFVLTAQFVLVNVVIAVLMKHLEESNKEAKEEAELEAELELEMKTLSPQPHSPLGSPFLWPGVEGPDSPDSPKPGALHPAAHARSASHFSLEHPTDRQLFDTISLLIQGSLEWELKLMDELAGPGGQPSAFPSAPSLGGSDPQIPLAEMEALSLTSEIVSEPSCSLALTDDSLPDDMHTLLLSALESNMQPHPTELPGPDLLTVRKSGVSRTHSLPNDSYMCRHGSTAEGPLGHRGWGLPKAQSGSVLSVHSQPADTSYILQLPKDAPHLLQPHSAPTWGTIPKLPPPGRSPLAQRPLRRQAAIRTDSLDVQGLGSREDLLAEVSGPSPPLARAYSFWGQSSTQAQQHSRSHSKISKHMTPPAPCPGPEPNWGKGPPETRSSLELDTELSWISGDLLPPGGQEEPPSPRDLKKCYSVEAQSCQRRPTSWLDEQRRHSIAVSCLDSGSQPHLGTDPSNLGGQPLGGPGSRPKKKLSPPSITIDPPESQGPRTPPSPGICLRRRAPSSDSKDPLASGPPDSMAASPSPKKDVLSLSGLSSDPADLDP
# measurement.description: Block of α1G T-type channels, whole-cell patch clamp in HEK cells
# Format: cell-based
# applied.conditions: non-inactivating protocol, pre-pulse −100 mV (resting block); read-out: IC50 at −100 mV
# Experimental: Standard patch-clamp techniques were employed to identify blockers of T-type currents. Briefly, previously described HEK cell lines stably expressing human α1G T-type channels were used for all the recordings (passage #: 4-20, 37° C., 5% CO2). To obtain T-type currents, plastic dishes containing semi-confluent cells were positioned on the stage of a ZEISS AXIOVERT S100 microscope after replacing the culture medium with external solution (see below). […]
pIC50: −log10 of the molar value.
metric: pIC50

In [3]: df
Out[3]:
                                   compound                               measured_on   val
0  O=C(NCC1CCN(C(=O)CCCCC(c2ccc(F)cc2)c2ccc(F)cc2)C1)c1cc(C(F)(F)F)cc(C(F)(F)F)c1 (centres unmarked) [Compound P24]  human α1G T-type channels (Homo sapiens, UniProt O43497)  7.92

P = COc1c(C(C)(C)C)cc(C(=O)NCC2CCN(CCCCCC(c3ccc(F)cc3)c3ccc(F)cc3)C2)cc1C(C)(C)C (centres unmarked) [Compound P19]
Q = O=C(COc1ccc(Cl)cc1)NCC1CCN(C(=O)CCCCC(c2ccc(F)cc2)c2ccc(F)cc2)C1 (centres unmarked) [Compound P36]
R = CN(CC(=O)N(c1ccccc1)c1ccccc1)CC1CCN(C(c2ccccc2)c2ccccc2)C1 (centres unmarked) [Compound P54]
Task item: Sort ascending by pIC50. Your answer should be the labels, listed in the requested order.
Reply: R, P, Q
